- Test system: cholesterol biosynthesis in Hep G2 cells
- METHOD_SUMMARY: Test B-1: Inhibition of cholesterol biosynthesis in culture cells (Hep G2)
- Format: cell-based
- CONDITIONS: Homo sapiens, HepG2, [2-^14 C]sodium acetate added at 0 hr after addition of compounds, 4 hrs incubation, read-out: Inhibitory activities by Test B-1: I50 (molar concentration)
- Description: Hep G2 cells at over 5th passage were seeded to 12 well plates and incubated with Dulbecco's modified Eagle (DME) medium containing 10% of fetal bovine serum (FBS) at 37° C., 5% CO2 until cells were confluent for about 7 days. Cells were exposed to the DME medium containing 5% of lipoprotein deficient serum (LpDS) prepared by ultracentrifugation method for over 24 hours. […]
REPORTED_ENDPOINT: IC50 (nM)
// note: answer is a bare numeric in nM

Prompt: System cholesterol biosynthesis in Hep G2 cells. Read-out IC50. Item CC(C)c1nc2ccccc2c(-c2ccc(F)cc2)c1/C=C/C(O)CC(O)CC(=O)O (stereo not shown) . Report value.
Response: 100
